Where do these numbers come from? They come from PubChem BioAssay AID248.

Tested on: L1210 leukemia ip in BDF1 mice, survival T/C
Test: NCI In Vivo Anticancer Drug Screen. Data for tumor model L1210 Leukemia (intraperitoneal) in B6D2F1 (BDF1) mice
Conditions: endpoint: mean survival time; dose: 200.0 mg/kg/injection; schedule: Q01DX001 (ip); vehicle: carboxymethylcellulose (CMC); higher = longer survival
Description: The antitumor activity of compounds was measured in mice bearing transplantable tumors. Survival or tumor size were measured and the results are expressed as the measurement made in the treated group (T) divided by the measurement made in the vehicle treated control group (C). The tumor model used in this assay is L1210 Leukemia (intraperitoneal) in B6D2F1 (BDF1) mice
Inconclusive results and toxic doses are left out.
measurement-type: T/C

Lab book: T/C of O=C(c1ccc([N+](=O)[O-])cc1)C1NC1c1ccc([N+](=O)[O-])cc1 (stereo not given) noted as 105 % of control

Lab book: T/C of O=C1c2cc([N+](=O)[O-])ccc2-c2cc(Cl)c([N+](=O)[O-])cc21 noted as 91 % of control

Lab book: T/C of O=S(=O)(O)OC1CCCC1S(=O)(=O)O (stereo not given) noted as 107 % of control

Lab book: T/C of Cc1cc(=O)oc2cc(OS(C)(=O)=O)ccc12 noted as 107 % of control

Lab book: T/C of Cc1cc(Cl)cc(CN(C)Cc2c(C)[nH]c(=O)[nH]c2=O)c1O noted as 94 % of control

Lab book: T/C of O=C(COc1ccc(Cl)cc1Cl)OC(=O)COc1ccc(Cl)cc1Cl noted as 89 % of control

Lab book: T/C of CCC/C(=N/OC(=O)N(C)C)c1ccccc1 noted as 98 % of control

Lab book: T/C of O=C1N(Br)C(=O)C(c2ccc(Cl)cc2)(c2ccc(Cl)cc2)N1Br noted as 90 % of control

Lab book: T/C of CCC(CC)(CC#N)C1CCCCC1 noted as 98 % of control
